Where these numbers come from: patent US20260176289A1

- MEASURED TARGET: KRAS-G13D (Homo sapiens, UniProt P01116, G13D)
- Sequence (P01116 with tags, fused parts or gaps isoform P01116-2 G13D): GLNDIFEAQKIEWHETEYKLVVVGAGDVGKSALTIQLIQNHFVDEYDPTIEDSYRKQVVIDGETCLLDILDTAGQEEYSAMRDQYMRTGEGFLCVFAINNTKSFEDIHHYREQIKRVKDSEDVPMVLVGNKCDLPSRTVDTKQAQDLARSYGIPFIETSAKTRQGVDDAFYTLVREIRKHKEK
- PROTOCOL DETAILS: SOS-catalyzed nucleotide exchange assay (Procedure A, TR-FRET), KRAS-G13D
- Type: biochemical
ENDPOINT: IC50 (nM)
Provide the reading as a plain figure in nM.

Asked: Specify IC50 for `Cc1cc2[nH]ncc2c(-c2nccc3c2[se]c2nc(OC[C@@]45CCCN4C[C@H](F)C5)nc(N4CCOC[C@@](C)(O)C4)c23)c1C(F)(F)F` and stop.
Given back: 50.7

====

- MEASURED TARGET: KRAS-G12D (Homo sapiens, UniProt P01116, G12D)
- Sequence (P01116 with tags, fused parts or gaps isoform P01116-2 G12D): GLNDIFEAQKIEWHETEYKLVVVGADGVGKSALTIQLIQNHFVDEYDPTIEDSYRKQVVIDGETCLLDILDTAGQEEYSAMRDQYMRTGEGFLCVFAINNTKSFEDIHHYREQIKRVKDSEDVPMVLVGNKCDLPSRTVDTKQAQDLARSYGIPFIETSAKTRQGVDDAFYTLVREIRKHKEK
- PROTOCOL DETAILS: SOS-catalyzed nucleotide exchange assay (Procedure A, TR-FRET), KRAS-G12D
- Assay type: biochemical
- PROTOCOL CONDITIONS: nucleotide exchange, read-out: KRAS G12D GNE IC50
Listing: log10 IC50 of selected molecules
// stored as log10 of IC50 expressed in nM

Study these solved cases before continuing.
CC1(F)CCN(C[C@@]2(COc3nc(N4CCOC[C@@](C)(O)C4)c4c(n3)sc3c(-c5c(C6(F)CC6)c(Cl)cc6[nH]ncc56)nccc34)CC2(F)F)CC1 [Ex-232]; 2.02
C[C@H]1CN(C[C@@]2(COc3nc(N4CCOC[C@@](C)(O)C4)c4c(n3)sc3c(-c5c(C6(F)CC6)c(Cl)cc6[nH]ncc56)nccc34)CC2(F)F)CCO1 [Ex-244]; 2.15
CC1CCc2cccc(-c3nccc4c3sc3nc(OC[C@@]56CCCN5C[C@H](F)C6)nc(N5CCOC[C@@](C)(O)C5)c34)c21 (single isomer, unassigned) [Ex-117]; 1.87
C[C@@H]1CCCc2cc3[nH]ncc3c(-c3nccc4c3sc3nc(OC[C@@]56CCCN5C[C@H](F)C6)nc(N5CCOC[C@@](C)(O)C5)c34)c21 [Ex-116]; 0.69
Cc1cc2[nH]ncc2c(-c2nccc3c2sc2nc(OC[C@@]45CCCN4C[C@H](F)C5)nc(NC4CCC4)c23)c1C(F)(F)F [Ex-191]; 4.05
CC[C@@H]1CCCc2cc3[nH]ncc3c(-c3nccc4c3sc3nc(OC[C@@]56CCCN5C[C@H](F)C6)nc(N5CCOC[C@@](C)(O)C5)c34)c21 [Ex-176]; 0.79

Asked: Specify log10 IC50 for C[C@@]1(O)COCCN(c2nc(OC[C@]3(CN4CC5(CCCOC5)C4)CC3(F)F)nc3sc4c(-c5c(C6(F)CC6)c(Cl)cc6[nH]ncc56)nccc4c23)C1 [Ex-249] and stop.
Given back: 0.43

Asked: Specify log10 IC50 for CCn1c2nc(OC[C@@]34CCCN3C[C@H](F)C4)nc(N3CCOC[C@@](C)(O)C3)c2c2ccnc(-c3c(C(F)(F)F)c(C)cc4[nH]ncc34)c21 [Ex-24] and stop.
Given back: 2.85

Asked: Specify log10 IC50 for COCC12CC(CN1C[C@@]1(COc3nc(N4CCOC[C@@](C)(O)C4)c4c(n3)sc3c(-c5c(C6(F)CC6)c(Cl)cc6[nH]ncc56)nccc34)CC1(F)F)C2 [Ex-258] and stop.
Given back: 0.85

Asked: Specify log10 IC50 for C[C@@]1(O)COCCN(c2nc(OC[C@@]34CCCN3C[C@H](F)C4)nc3sc4c(-c5c(C6CC6)c(Cl)cc6[nH]ncc56)nccc4c23)C1 [Ex-144] and stop.
Given back: 0.79

Asked: Specify log10 IC50 for Cc1cc2[nH]ncc2c(-c2nccc3c4c(N5CCOC[C@@](C)(O)C5)nc(OC[C@@]56CCCN5C[C@H](F)C6)nc4n(C)c23)c1C(F)F (single isomer, unassigned) [Ex-10] and stop.
Given back: 1.61

====

- MEASURED TARGET: KRAS-G12D (Homo sapiens, UniProt P01116, G12D)
- PROTOCOL DETAILS: SOS-catalyzed nucleotide exchange assay (Procedure A, TR-FRET), KRAS-G12D
- Format: biochemical
- PROTOCOL CONDITIONS: nucleotide exchange, read-out: KRAS G12D GNE IC50
Listing: pIC50 of selected compounds
Kindly note that pIC50 refers to -log10 of the concentration in mol/L and answer with the value alone.

C[C@@]1(O)COCCN(c2nc(OC[C@@]34CCCN3C[C@H](F)C4)nc3sc4c(-c5c(-c6ccco6)c(Cl)cc6[nH]ncc56)nccc4c23)C1 [Ex-148]; 8.18

Asked: State pIC50 (KRAS-G12D (Homo sapiens, UniProt P01116, G12D)) of Cc1cc2[nH]ncc2c(-c2nccc3c2C2(CC2)c2nc(OC[C@@]45CCCN4C[C@H](F)C5)nc(N4CCOC[C@@](C)(O)C4)c2-3)c1C(F)(F)F (single isomer, unassigned) [Ex-307] .
Given back: 8.05

Asked: State pIC50 (KRAS-G12D (Homo sapiens, UniProt P01116, G12D)) of CCc1cc2[nH]ncc2c(-c2nccc3c2sc2nc(OC[C@@]45CCCN4C[C@H](F)C5)nc(N4CCOC[C@@](C)(O)C4)c23)c1C1CC1 [Ex-48] .
Given back: 7.74

====

Listing: pIC50 of selected molecules
- MEASURED TARGET: KRAS G12C (amino acids 1-169) (Homo sapiens, UniProt P01116, G12C)
- Sequence (P01116 with tags, fused parts or gaps isoform P01116-2 G12C): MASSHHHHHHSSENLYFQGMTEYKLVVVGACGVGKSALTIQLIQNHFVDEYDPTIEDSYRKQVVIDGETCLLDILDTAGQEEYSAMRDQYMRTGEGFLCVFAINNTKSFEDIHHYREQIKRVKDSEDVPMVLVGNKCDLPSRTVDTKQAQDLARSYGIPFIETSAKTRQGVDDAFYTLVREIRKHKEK
- PROTOCOL DETAILS: SOS-catalyzed nucleotide exchange assay (Procedure B, BODIPY FL GDP displacement), KRAS G12C
- PROTOCOL CONDITIONS: read-out: KRAS G12C GNE IC50
Kindly note that pIC50 refers to -log10 of the concentration in mol/L and answer with the value alone.

Study these solved cases before continuing.
CCC1CCc2cc3[nH]ncc3c(-c3nccc4c3sc3nc(OC[C@@]56CCCN5C/C(=C\F)C6)nc(N5CCOC[C@@](C)(O)C5)c34)c21 (stereo partly drawn); 8.27
Cc1cc2[nH]ncc2c(-c2nccc3c2sc2nc(OC[C@@]45CCCN4C[C@H](F)C5)nc(N4C[C@H](O)C[C@H]4C)c23)c1C(F)(F)F; 5.54
C[C@@H]1C[C@@H]1c1c(Cl)cc2[nH]ncc2c1-c1nccc2c1sc1nc(OC[C@@]34CCCN3C[C@H](F)C4)nc(N3CCOC[C@@](C)(O)C3)c12 (atropisomer, axis not shown; (aS)); 7.41
Cc1cc2[nH]ncc2c(-c2nccc3c2sc2nc(OC[C@@]45CCCN4C[C@H](F)C5)nc(N4CCOC[C@@](C)(O)C4)c23)c1C(C)C; 7.40
C#CC1CCc2cc3[nH]ncc3c(-c3nccc4c3sc3nc(OC[C@@]56CCCN5C[C@H](F)C6)nc(N5CCOC[C@@](C)(O)C5)c34)c21 (stereo partly drawn); 7.74

Then there is this molecule:
Asked: Specify pIC50 for C[C@@]1(O)COCCN(c2nc(OC[C@@]34CCCN3C[C@H](F)C4)nc3sc4c(-c5c6c(cc7[nH]ncc57)CCC6C#N)nccc4c23)C1 (stereo partly drawn) and stop.
Given back: 6.72

====

- MEASURED TARGET: HRAS (Homo sapiens)
- Sequence (P01112 with tags, fused parts or gaps): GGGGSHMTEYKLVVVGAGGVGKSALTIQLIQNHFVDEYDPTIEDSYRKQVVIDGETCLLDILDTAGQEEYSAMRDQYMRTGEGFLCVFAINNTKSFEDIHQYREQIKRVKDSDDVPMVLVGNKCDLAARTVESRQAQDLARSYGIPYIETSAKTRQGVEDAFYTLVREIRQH
- PROTOCOL DETAILS: SOS-catalyzed nucleotide exchange assay (Procedure A, TR-FRET), HRAS
- Type: biochemical
- PROTOCOL CONDITIONS: read-out: HRAS GNE IC50
ENDPOINT: IC50 (µM)
Provide the reading as a plain figure in µM.

C[C@H]1CCN1C[C@@]1(COc2nc(N3CCOC[C@@](C)(O)C3)c3c(n2)sc2c(-c4c(C5(F)CC5)c(Cl)cc5[nH]ncc45)nccc23)CC1(F)F [Ex-253]; 1.06
C[C@@]1(O)COCCN(c2nc(OC[C@@]34CCCN3C[C@H](F)C4)nc3sc4c(-c5c(C6CC6)c(Cl)cc6[nH]ncc56)nncc4c23)C1 [Ex-280]; 8.66

Then there is this compound:
Asked: Specify IC50 for CCC1c2c(cc3[nH]ncc3c2-c2nccc3c2sc2nc(OC[C@@]45CCCN4C/C(=C\F)C5)nc(N4CCOC[C@@](C)(O)C4)c23)CC1(F)F (single isomer, unassigned) [Ex-109] and stop.
Given back: 8.06

====

- MEASURED TARGET: KRAS-G12D (Homo sapiens, UniProt P01116, G12D)
- PROTOCOL DETAILS: SOS-catalyzed nucleotide exchange assay (Procedure A, TR-FRET), KRAS-G12D
- Format: biochemical
- PROTOCOL CONDITIONS: nucleotide exchange, read-out: KRAS G12D GNE IC50
Listing: pIC50 of selected compounds
Kindly note that pIC50 refers to -log10 of the concentration in mol/L and answer with the value alone.

Study these solved cases before continuing.
C[C@@]1(O)COCCN(c2nc(OC[C@]3(CN4C[C@H]5C[C@@H]4CO5)CC3(F)F)nc3sc4c(-c5c(C6(F)CC6)c(Cl)cc6[nH]ncc56)nccc4c23)C1; 8.35
C[C@@]1(O)COCCN(c2nc(OC[C@@]34CCCN3C[C@H](F)C4)nc3sc4c(-c5c6cn[nH]c6cc6ccc(F)c(Cl)c56)nccc4c23)C1; 7.70
Cc1cc2[nH]ncc2c(-c2nccc3c4c(N5CCOC[C@@](C)(O)C5)nc(OC[C@]5(CN(C)C)CC5(F)F)nc4n(C)c23)c1C(F)F (single isomer, unassigned); 7.58
C=CC(F)(F)c1c(C)cc2[nH]ncc2c1-c1nccc2c1sc1nc(OC[C@@]34CCCN3C[C@H](F)C4)nc(N3CCOC[C@@](C)(O)C3)c12; 7.11

Asked: Specify pIC50 for `C[C@@]1(O)COCCN(c2nc(OC[C@]3(CN4[C@@H]5CC[C@H]4C[C@@H](F)C5)CC3(F)F)nc3sc4c(-c5c(C6(F)CC6)c(Cl)cc6[nH]ncc56)nccc4c23)C1` and stop.
Given back: 7.04
